# Measured On: T1, human GLP-1R (human), P43220
# T1 chain: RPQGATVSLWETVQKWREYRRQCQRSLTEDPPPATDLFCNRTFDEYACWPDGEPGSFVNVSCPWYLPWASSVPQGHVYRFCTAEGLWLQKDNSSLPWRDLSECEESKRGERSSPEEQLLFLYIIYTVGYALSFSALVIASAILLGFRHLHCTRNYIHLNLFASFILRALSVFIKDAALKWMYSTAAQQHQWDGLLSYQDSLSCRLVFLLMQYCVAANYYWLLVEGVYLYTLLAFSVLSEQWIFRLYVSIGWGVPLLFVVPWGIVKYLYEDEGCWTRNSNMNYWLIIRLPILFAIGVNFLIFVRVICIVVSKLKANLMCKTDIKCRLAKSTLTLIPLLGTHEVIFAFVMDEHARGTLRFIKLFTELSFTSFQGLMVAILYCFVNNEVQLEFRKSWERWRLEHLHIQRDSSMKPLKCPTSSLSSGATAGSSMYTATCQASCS
Non-standard residues stand in square brackets, D forms with d. Groups on a side chain read outwards from the residue. Primed or numbered codes have the meaning given here. No end group written: not given here. *: point of attachment. NMeY = CN[C@@H](Cc1ccc(O)cc1)C(=O)O; Stearoyl = CCCCCCCCCCCCCCCCCC(=O)*; αMeF = C[C@](N)(Cc1ccccc1)C(=O)O; Myristoyl = CCCCCCCCCCCCCC(=O)*; dIva = CC[C@@](C)(N)C(=O)O; PEG2′ = not defined here; Aib = CC(C)(N)C(=O)O
This section presents binders with their documented Agonist activity (EC50, M) values.

# Binder, Agonist activity (EC50, M)
rows = [
    ("Y[Aib]EGTFISDYSK([PEG2′-Stearoyl])ALDRIHQQDFVNWLLAQRPSSGAPPPSR (ends and bridges not checked) [Compound 181]", "> 1e-06 M"),
    ("[NMeY][Aib]EGTFISDYSIALDR[Aib]AQQD[αMeF]VNWLLAQRPSSGAPPPSR (not fully specified (C-terminus); ends and bridges not checked) [Compound 73]", "> 1e-06 M"),
    ("[NMeY][Aib]EGTFISDYSI[dIva]LDR[Aib]AQQD[αMeF]VNWLLAQRPSSGAPPPSR (ends and bridges not checked) [Compound 81]", "> 1e-06 M"),
    ("Y[Aib]EGTFISDYSK([PEG2′-Myristoyl])ALDRIAQQDFVNWLLAQRPSSGAPPPSR (ends and bridges not checked) [Compound 186]", "1.3e-08 M"),
]
